meta.source: PubChem BioAssay (NCI)

- ASSAY: NCI Yeast Anticancer Drug Screen. Data for the bub3 strain (AID 167)
- RUN_PARAMETERS: S. cerevisiae bub3 mutant strain, at 50.0 µM, active compounds read high
About 79,000 compounds went through this panel and 15% of them were active in at least one assay; those are over-represented in the sample as a whole.
Exercise: for every item that follows, state its recorded growth inhibition.
Your answer should be a plain number; it is taken to be in %.

Reported growth inhibition for `CN(C)c1ccc(C2(c3ccc(N(C)C)cc3)NNC(=O)c3cc(N(C)C)ccc32)cc1` was -3.15

Reported growth inhibition for CN=S(=O)(OC/C=C/COS(=O)(=NC)c1ccc(C)cc1)c1ccc(C)cc1 (stereo unspecified) was -10.4

Reported growth inhibition for `Oc1ccc2ccccc2c1/C=N\Sc1ccc(Br)cc1` was 32.2

Reported growth inhibition for `CSC(=NCCCCN=C(NS(=O)(=O)c1ccc(Cl)cc1)SC)NS(=O)(=O)c1ccc(Cl)cc1` was -8.8

Reported growth inhibition for Cc1ccc(SC(F)(F)C(F)C(F)(F)F)cc1 (stereo unspecified) was 7.9

Reported growth inhibition for `CC1=C(C(=O)NN)CC/C1=N\N` was -9.3
